src = ChEMBL document CHEMBL1149678

Target: Retinoic acid receptor RXR-alpha (Homo sapiens, UniProt P19793)
Sequence (P19793 whole entry): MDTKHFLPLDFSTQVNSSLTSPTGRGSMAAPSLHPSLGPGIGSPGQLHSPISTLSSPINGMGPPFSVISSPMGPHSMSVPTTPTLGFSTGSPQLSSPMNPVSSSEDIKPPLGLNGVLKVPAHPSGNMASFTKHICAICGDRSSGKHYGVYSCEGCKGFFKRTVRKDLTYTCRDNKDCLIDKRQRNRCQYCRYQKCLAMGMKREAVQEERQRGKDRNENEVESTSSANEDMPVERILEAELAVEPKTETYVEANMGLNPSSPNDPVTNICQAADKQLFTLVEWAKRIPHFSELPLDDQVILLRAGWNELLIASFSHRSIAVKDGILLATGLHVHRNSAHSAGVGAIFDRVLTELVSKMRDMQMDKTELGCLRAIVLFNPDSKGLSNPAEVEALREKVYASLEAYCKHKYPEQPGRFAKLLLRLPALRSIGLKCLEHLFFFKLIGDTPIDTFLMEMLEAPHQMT
Assay: Antagonist activity at human RXRalpha expressed in […] cells assessed as inhibition of 9-cis-retinoic acid-induced transactivation
Assay type: functional, cell-based, HEK293
PARAMETER: IC50 (nM)

| CHEMICAL STRUCTURE | IC50 [nM] |
| --- | --- |
| CCN1c2ccc(NS(=O)(=O)c3cccc(C(F)(F)F)c3)cc2N=C(c2ccc(C(=O)O)cc2)c2cc3c(cc21)C(C)(C)CCC3(C)C | 95 |
| CCCCS(=O)(=O)Nc1ccc2c(c1)N=C(c1ccc(C(=O)O)cc1)c1cc3c(cc1N2CC)C(C)(C)CCC3(C)C | 200 |
| CN1c2ccc(NS(=O)(=O)/C=C/c3ccccc3)cc2N=C(c2ccc(C(=O)O)cc2)c2cc3c(cc21)C(C)(C)CCC3(C)C | 400 |
| CCCN1c2ccc(NS(=O)(=O)CCC)cc2N=C(c2ccc(C(=O)O)cc2)c2cc3c(cc21)C(C)(C)CCC3(C)C | 550 |
| COc1ccc(S(=O)(=O)Nc2ccc3c(c2)N=C(c2ccc(C(=O)O)cc2)c2cc4c(cc2N3C)C(C)(C)CCC4(C)C)cc1 | 470 |
| CN1c2ccc(NC(=O)c3cccc(C(F)(F)F)c3)cc2N=C(c2ccc(C(=O)O)cc2)c2cc3c(cc21)C(C)(C)CCC3(C)C | 4200 |

[P] CN1c2ccc(NC(=O)C3CCCCC3)cc2N=C(c2ccc(C(=O)O)cc2)c2cc3c(cc21)C(C)(C)CCC3(C)C
[Q] CCC(=O)Nc1ccc2c(c1)N=C(c1ccc(C(=O)O)cc1)c1cc3c(cc1N2C)C(C)(C)CCC3(C)C
[R] CN1c2ccc(NC(=O)c3ccccc3)cc2N=C(c2ccc(C(=O)O)cc2)c2cc3c(cc21)C(C)(C)CCC3(C)C
[S] CCCN1c2ccc(NS(=O)(=O)c3cccc(C(F)(F)F)c3)cc2N=C(c2ccc(C(=O)O)cc2)c2cc3c(cc21)C(C)(C)CCC3(C)C
[T] CN1c2ccc(NS(=O)(=O)c3ccccc3)cc2N=C(c2ccc(C(=O)O)cc2)c2cc3c(cc21)C(C)(C)CCC3(C)C
Reorder: IC50, max to min. Form entry: labels listed in requested order.
Q, P, R, T, S
(Q: 2200 nM, P: 1500 nM, R: 900 nM, T: 510 nM, S: 76 nM)

[I] CN1c2ccc(NS(=O)(=O)c3cccc4ccccc34)cc2N=C(c2ccc(C(=O)O)cc2)c2cc3c(cc21)C(C)(C)CCC3(C)C
[II] CN1c2ccc(NS(C)(=O)=O)cc2N=C(c2ccc(C(=O)O)cc2)c2cc3c(cc21)C(C)(C)CCC3(C)C
Hey, which is lower on measured IC50, I or II ? Respond with the label that goes with your answer.
I
